assay: Intrinsic clearance in rat liver microsome; type: ADME; conditions: liver microsomes, read-out: CLH
measure: microsomal CLint (µL/min/mg)
Write the number in µL/min/mg without appending the unit.

# input Give the reported value of microsomal CLint for this record: O=c1ccc2cnc3ccc(-c4ccc(N5CCNCC5)nc4)cc3c2n1-c1cccc(C(F)(F)F)c1
# output 33

---

target: Serine/threonine-protein kinase ATR (Homo sapiens) (UniProt Q13535); experiment: Inhibition of ATR in human HCT116 cells assessed as decrease in Chk1 phosphorylation at Ser317 residue at 250 nM treated for 1 hr prior to UV-irradiation exposure and measured after 1 hr by Immunoblot analysis; type: cell-based; conditions: HCT-116, time 2.0 hrs
Sequence (Q13535 whole entry, looked up): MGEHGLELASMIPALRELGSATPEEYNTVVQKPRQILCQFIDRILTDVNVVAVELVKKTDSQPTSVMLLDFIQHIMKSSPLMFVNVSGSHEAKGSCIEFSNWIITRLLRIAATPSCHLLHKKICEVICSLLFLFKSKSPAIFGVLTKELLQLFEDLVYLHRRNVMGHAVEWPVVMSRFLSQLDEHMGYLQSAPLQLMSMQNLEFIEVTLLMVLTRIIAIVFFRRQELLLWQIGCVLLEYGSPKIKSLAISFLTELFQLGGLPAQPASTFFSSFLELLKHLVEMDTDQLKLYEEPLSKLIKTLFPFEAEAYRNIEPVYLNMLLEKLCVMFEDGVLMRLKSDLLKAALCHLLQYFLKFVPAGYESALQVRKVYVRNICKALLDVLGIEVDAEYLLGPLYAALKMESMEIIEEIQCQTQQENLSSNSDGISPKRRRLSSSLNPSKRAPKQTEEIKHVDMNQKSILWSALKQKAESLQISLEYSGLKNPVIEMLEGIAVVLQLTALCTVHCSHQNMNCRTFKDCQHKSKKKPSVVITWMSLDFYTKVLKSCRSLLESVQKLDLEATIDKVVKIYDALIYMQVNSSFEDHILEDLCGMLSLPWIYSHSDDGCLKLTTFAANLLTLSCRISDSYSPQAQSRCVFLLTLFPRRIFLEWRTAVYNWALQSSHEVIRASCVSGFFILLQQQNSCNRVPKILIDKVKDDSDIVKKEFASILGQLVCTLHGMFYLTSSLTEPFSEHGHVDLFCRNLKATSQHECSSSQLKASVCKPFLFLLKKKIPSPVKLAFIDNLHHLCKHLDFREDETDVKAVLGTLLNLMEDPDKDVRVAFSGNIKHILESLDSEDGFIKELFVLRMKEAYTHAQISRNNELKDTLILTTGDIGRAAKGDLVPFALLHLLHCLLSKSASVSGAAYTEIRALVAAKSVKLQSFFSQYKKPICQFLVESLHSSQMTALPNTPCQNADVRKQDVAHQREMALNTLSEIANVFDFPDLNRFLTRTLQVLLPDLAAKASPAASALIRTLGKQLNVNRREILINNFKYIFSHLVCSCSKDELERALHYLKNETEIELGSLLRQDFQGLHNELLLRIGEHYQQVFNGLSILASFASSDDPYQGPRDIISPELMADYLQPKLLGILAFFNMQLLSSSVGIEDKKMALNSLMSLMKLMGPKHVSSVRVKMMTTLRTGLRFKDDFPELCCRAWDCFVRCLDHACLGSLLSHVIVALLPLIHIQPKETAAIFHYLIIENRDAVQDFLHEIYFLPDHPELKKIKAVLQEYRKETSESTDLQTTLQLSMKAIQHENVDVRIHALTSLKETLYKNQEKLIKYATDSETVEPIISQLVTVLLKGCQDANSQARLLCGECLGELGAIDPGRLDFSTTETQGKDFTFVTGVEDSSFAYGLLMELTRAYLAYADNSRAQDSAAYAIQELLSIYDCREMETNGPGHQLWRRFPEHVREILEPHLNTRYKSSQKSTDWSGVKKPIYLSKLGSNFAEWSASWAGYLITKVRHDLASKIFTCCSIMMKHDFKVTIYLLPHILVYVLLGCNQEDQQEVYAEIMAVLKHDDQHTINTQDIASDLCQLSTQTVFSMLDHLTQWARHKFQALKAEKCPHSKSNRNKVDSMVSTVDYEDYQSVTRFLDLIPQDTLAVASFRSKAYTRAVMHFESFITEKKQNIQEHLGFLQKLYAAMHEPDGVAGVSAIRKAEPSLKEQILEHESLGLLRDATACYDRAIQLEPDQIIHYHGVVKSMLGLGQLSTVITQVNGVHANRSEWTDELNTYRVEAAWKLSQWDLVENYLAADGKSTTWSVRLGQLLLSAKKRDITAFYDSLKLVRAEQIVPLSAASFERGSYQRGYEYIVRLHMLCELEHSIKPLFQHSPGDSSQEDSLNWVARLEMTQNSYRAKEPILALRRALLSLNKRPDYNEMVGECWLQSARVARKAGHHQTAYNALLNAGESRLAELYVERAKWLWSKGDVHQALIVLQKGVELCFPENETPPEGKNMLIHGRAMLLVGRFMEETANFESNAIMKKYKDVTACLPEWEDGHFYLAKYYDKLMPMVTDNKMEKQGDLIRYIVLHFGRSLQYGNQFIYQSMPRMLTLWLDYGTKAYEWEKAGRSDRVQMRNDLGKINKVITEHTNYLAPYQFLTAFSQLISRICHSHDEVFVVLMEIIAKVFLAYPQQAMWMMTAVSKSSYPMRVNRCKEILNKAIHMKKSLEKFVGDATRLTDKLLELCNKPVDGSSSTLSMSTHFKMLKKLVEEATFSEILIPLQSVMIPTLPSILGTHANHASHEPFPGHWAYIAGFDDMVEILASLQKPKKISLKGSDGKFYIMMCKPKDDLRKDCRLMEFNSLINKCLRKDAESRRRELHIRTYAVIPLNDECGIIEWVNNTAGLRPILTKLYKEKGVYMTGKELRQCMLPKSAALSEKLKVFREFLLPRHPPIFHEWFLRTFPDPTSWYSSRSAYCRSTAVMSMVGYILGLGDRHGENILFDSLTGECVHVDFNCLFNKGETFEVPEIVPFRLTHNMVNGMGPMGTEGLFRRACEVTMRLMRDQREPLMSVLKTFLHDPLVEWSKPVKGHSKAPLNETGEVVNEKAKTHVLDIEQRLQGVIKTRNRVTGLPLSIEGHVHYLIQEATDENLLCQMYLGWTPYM
Active and inactive are the calls of the source. The calls are words filed in the database; no cut-off is given here.
measure: inhibition

- item smiles: "CS(=O)(=O)Nc1ccc(-c2ccc3ncc4ccc(=O)n(-c5cccc(C(F)(F)F)c5)c4c3c2)cn1"
  reported value: "Active"
- item smiles: "O=c1ccc2cnc3ccc(-c4ccc(N5CCNCC5)nc4)cc3c2n1-c1cccc(C(F)(F)F)c1"
  reported value: "100%"
- item smiles: "Nc1cnc(-c2ccc3ncc4ccc(=O)n(-c5cccc(C(F)(F)F)c5)c4c3c2)cn1"
  reported value: "Active"
- item smiles: "O=c1ccc2cnc3ccc(-c4ccc(N5CCOCC5)nc4)cc3c2n1-c1cccc(C(F)(F)F)c1"
  reported value: "Active"

---

test: Stability in mouse liver microsomes assessed as proportion of drug metabolized measured after 30 mins; assay type: ADME, Microsome; conditions: read-out: Drug metabolism
measure: metabolised at 0.5 h (%)
Write the number in % without appending the unit.

# input Give the reported value of metabolised at 0.5 h for this record: O=c1ccc2cnc3ccc(-c4ccc(N5CCNCC5)nc4)cc3c2n1-c1cccc(C(F)(F)F)c1
# output 11

---

assay: Stability in human liver microsomes assessed as proportion of drug metabolized measured after 30 mins; type: ADME, Microsome; settings: read-out: Drug metabolism
measure: metabolised at 0.5 h (%)
Write the number in % without appending the unit.

# input Give the reported value of metabolised at 0.5 h for this record: O=c1ccc2cnc3ccc(-c4ccc(N5CCNCC5)nc4)cc3c2n1-c1cccc(C(F)(F)F)c1
# output 55

---

assay: Stability in rat liver microsomes assessed as proportion of drug metabolized measured after 30 mins; type: ADME, Microsome; settings: read-out: Drug metabolism
measure: metabolised at 0.5 h (%)
Write the number in % without appending the unit.

# input Give the reported value of metabolised at 0.5 h for this record: O=c1ccc2cnc3ccc(-c4ccc(N5CCNCC5)nc4)cc3c2n1-c1cccc(C(F)(F)F)c1
# output 41

---

assay: Intrinsic clearance in mouse liver microsome; format: ADME; conditions: liver microsomes, read-out: CLH
measure: microsomal CLint (µL/min/mg)
Write the number in µL/min/mg without appending the unit.

# input Give the reported value of microsomal CLint for this record: O=c1ccc2cnc3ccc(-c4ccc(N5CCNCC5)nc4)cc3c2n1-c1cccc(C(F)(F)F)c1
# output 9

---

tested on: HCT-116; experiment: Growth inhibition of human HCT116 cells measured after 72 hrs by Celltiter-Glo assay; type: functional
measure: log10 of GI50 (log10 of the value in nM)
Plainly stated, the numbers are log10 of GI50 given in nM.

# input Give the reported value of log10 of GI50 for this record: Nc1ccc(-c2ccc3ncc4ccc(=O)n(-c5cccc(C(F)(F)F)c5)c4c3c2)cn1
# output 1.51

# input Give the reported value of log10 of GI50 for this record: O=c1ccc2cnc3ccc(-c4ccc(N5CCOCC5)nc4)cc3c2n1-c1cccc(C(F)(F)F)c1
# output 2.90

# input Give the reported value of log10 of GI50 for this record: O=c1ccc2cnc3ccc(-c4ccc(N5CCNCC5)nc4)cc3c2n1-c1cccc(C(F)(F)F)c1
# output 1.75

# input Give the reported value of log10 of GI50 for this record: Nc1cnc(-c2ccc3ncc4ccc(=O)n(-c5cccc(C(F)(F)F)c5)c4c3c2)cn1
# output 2.13

# input Give the reported value of log10 of GI50 for this record: CS(=O)(=O)Nc1ccc(-c2ccc3ncc4ccc(=O)n(-c5cccc(C(F)(F)F)c5)c4c3c2)cn1
# output 3.15

---

test: Half life in rat liver microsome; assay type: ADME; conditions: liver microsomes
measure: half-life

# input Give the reported value of half-life for this record: O=c1ccc2cnc3ccc(-c4ccc(N5CCNCC5)nc4)cc3c2n1-c1cccc(C(F)(F)F)c1
# output 42 min

---

target: Serine/threonine-protein kinase mTOR (Homo sapiens); assay: Inhibition of mTOR in human HCT116 cells assessed as decrease in p70S6K phosphorylation at Thr389 residue at 50 nM treated for 1 hr prior to UV-irradiation exposure and measured after 1 hr by immunoblot analysis; assay type: cell-based; conditions: HCT-116, time 2.0 hrs
Calls of active or inactive are those of the source. No cut-off for these calls is given here.

- item smiles: "O=c1ccc2cnc3ccc(-c4ccc(N5CCNCC5)nc4)cc3c2n1-c1cccc(C(F)(F)F)c1"
  assayed target: "Serine/threonine-protein kinase mTOR (Homo sapiens)"
  inhibition: "Active"
- item smiles: "Nc1cnc(-c2ccc3ncc4ccc(=O)n(-c5cccc(C(F)(F)F)c5)c4c3c2)cn1"
  assayed target: "Serine/threonine-protein kinase mTOR (Homo sapiens)"
  inhibition: "Active"
- item smiles: "CS(=O)(=O)Nc1ccc(-c2ccc3ncc4ccc(=O)n(-c5cccc(C(F)(F)F)c5)c4c3c2)cn1"
  assayed target: "Serine/threonine-protein kinase mTOR (Homo sapiens)"
  inhibition: "Active"
- item smiles: "O=c1ccc2cnc3ccc(-c4ccc(N5CCOCC5)nc4)cc3c2n1-c1cccc(C(F)(F)F)c1"
  assayed target: "Serine/threonine-protein kinase mTOR (Homo sapiens)"
  inhibition: "Active"
